# Test details: Absorbance at photostationary state (PSS) under simulated sunlight or 365 nm light
# Type: physicochemical
# Experimental parameters: simulated sunlight (QSUN solar simulator), no UV blocking film; 2.0×10^−5 M in triglyme
Entries and their measured Absorbance at PSS, full follow.

Molecule	Absorbance at PSS, full
c1ccc(-c2nc(-c3nc(-c4ccccc4)sc3-c3nc(-c4ccccc4)sc3-c3ccccc3)c(-c3ccccc3)s2)cc1 [S032]	0.032
CC(C)(C)c1ccc(-c2cc(C3=C(c4cc(-c5sc(C(C)(C)C)cc5C(=O)O)sc4-c4ccc(C(=O)O)s4)C(F)(F)C(F)(F)C3(F)F)c(-c3ccc(C(=O)O)s3)s2)s1 [S124]	0.249
COc1cc(OC)cc(-c2cc(C3=C(c4cc(-c5cc(OC)cc(OC)c5)sc4-c4cc(OC)cc(OC)c4)C(F)(F)C(F)(F)C3(F)F)c(-c3cc(OC)cc(OC)c3)s2)c1 [S097]	0.073
CC(C)(C)c1ccc(-c2sc(-c3ccccc3)cc2C2=C(c3cc(-c4ccccc4)sc3-c3ccc(C(C)(C)C)cc3)C(F)(F)C(F)(F)C2(F)F)cc1 [S057]	0.079
COc1ccc(-c2oc3ccc(OC)cc3c2C2=C(c3c(-c4ccc(OC)cc4)oc4ccc(OC)cc34)C(F)(F)C(F)(F)C2(F)F)cc1 [S083]	0.023
COCCC[Si](CCCOC)(CCCOC)c1ccc(-c2cc(C3=C(c4cc(-c5ccc([Si](CCCOC)(CCCOC)CCCOC)s5)sc4-c4ccc([Si](CCCOC)(CCCOC)CCCOC)s4)C(F)(F)C(F)(F)C3(F)F)c(-c3ccc([Si](CCCOC)(CCCOC)CCCOC)s3)s2)s1 [S138]	0.306
Cc1sc(-c2cc(C3=C(c4cc(-c5sc(C)c6c5OCCO6)sc4-c4sc(C)c5c4OCCO5)C(F)(F)C(F)(F)C3(F)F)c(-c3sc(C)c4c3OCCO4)s2)c2c1OCCO2 [S036]	0.024
COc1ccc(-c2cc(C3=C(c4cc(-c5ccc(C#N)cc5)sc4-c4ccc(OC)cc4)C(F)(F)C(F)(F)C3(F)F)c(-c3ccc(C#N)cc3)s2)cc1 [S087]	0.109
FC1(F)C(c2cc(-c3ccccc3)sc2-c2ccccc2)=C(c2cc(-c3cccs3)sc2-c2cccs2)C(F)(F)C1(F)F [S005]	0.072
CC(=O)c1ccc(-c2cc(C3=C(c4cc(-c5ccccc5)sc4-c4ccc(C(C)(C)C)cc4)C(F)(F)C(F)(F)C3(F)F)c(-c3ccc(C(C)(C)C)cc3)s2)cc1 [S065]	0.138
CC(C)(C)c1ccc(-c2sc(-c3ccc(Cl)cc3)cc2C2=C(c3cc(-c4ccc(Cl)cc4)sc3-c3ccc(C(C)(C)C)cc3)C(F)(F)C(F)(F)C2(F)F)cc1 [S060]	0.107
